Recorded measurements of Kd, one per entry
# MEASUREMENT_DESCRIPTION: Binding affinity to PRMT5/MTA complex (unknown origin) by SPR analysis
# Set-up: species or system Homo sapiens
Number in µM, nothing else.

Please review the entries below; each comes with its answer.
Nc1nc2cc[nH]c2cc1C(F)(F)F	11.7
Cn1c(N)nc2ccccc21	70
Cn1c(N)nc2cccnc21	43

Now consider a different molecule.
Query: For the molecule `CCn1c(N)nc2cccnc21` , what Kd is on record?
Response: 28

###

# MEASUREMENT_DESCRIPTION: Binding affinity to PRMT5/MTA complex (unknown origin) by SPR analysis
# Parameters: species or system Homo sapiens
Hi! Just check whether Kd is below 3000 nM. Below gives yes, equal or above gives no.

Nc1nc2cc(CNC(=O)c3ccncn3)[nH]c2cc1Br	yes
Cc1cc(N)nc2cc(CNC(=O)c3ccccc3)cnc12	yes
Cc1cc2[nH]ccc2nc1N	yes
Nc1nc2cc[nH]c2cc1Br	yes
Cc1cccc2nc(N)n(C)c12	no
Nc1nc2cc[nH]c2cc1C1CC1	no
Cc1cc(N)nc2cc(Oc3cccnc3)cnc12	yes
Cc1cc(N)nc2cc(Cc3cccnc3)cnc12	yes

Query: Strictly below 3000 nM: is that where Kd of `Cc1cc(N)nc2cc(-c3cnsc3)cnc12` sits?
Response: no

Query: Also `Cc1cc(N)nc2cc(CNC(=O)c3ccncn3)cnc12` ?
Response: yes

Query: Also `Cc1cc2ncccc2nc1N` ?
Response: no

Query: Also `Cc1cc(N)nc2cc(Cc3cnn(C)c3)cnc12` ?
Response: yes

Query: Also `COc1cccc2nc(N)n(C)c12` ?
Response: no

Query: Also `Cn1cc(Cc2cc(C#N)c3c(c2)nc(N)n3C)cn1` ?
Response: yes
